Molecular target: T1, MBNL1N, Cy3-labeled (UniProt Q9NR56 1-253)
T1 sequence: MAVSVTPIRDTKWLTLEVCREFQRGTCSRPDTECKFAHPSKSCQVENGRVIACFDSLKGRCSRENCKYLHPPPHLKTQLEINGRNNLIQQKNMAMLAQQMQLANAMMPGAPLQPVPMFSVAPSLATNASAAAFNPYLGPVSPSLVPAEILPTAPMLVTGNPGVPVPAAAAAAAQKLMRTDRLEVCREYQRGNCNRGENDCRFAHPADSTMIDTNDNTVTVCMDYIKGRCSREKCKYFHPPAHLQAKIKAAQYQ
Assay: single-molecule TIRFM

binder	Kd / nM
GCUGCUGUUCGCUGCUG (structured_RNA, 3' TEG-biotin) [(CUG)4 TIRF construct]	3.1
